All figures here come from paper PMC6736568.

system: Cryptosporidium parvum; assay: qRT-PCR assay of the growth of C. parvum in vitro in HCT-8 host cells (primary and secondary screening, EC50); format: cell-based; conditions: Cryptosporidium parvum; growth of C. parvum in vitro, HCT-8 host cells, 44 h infection
*1 amine or outer side, *2 acyl side, *3 side chain or, on linkers, in order; H or OH if unused. Where a SMILES comes first, the peptide text is derived from it. Bridges are numbered along the chain shown (N, C = ends). Roman numbers before positions name the chains, in order. [ ]: non-standard residue; d: D form. Actinocin(9to1) = Cc1c2oc3c(C)ccc(C(=O)[*:1])c3nc-2c(C(=O)[*:2])c(N)c1=O; NMeV = CN[C@H](C(=O)O)C(C)C; Sar = CNCC(=O)O
The threshold is 1 µM. Values of EC50 beneath it are tagged met; values meeting or exceeding it are tagged not met.

COMPOUND	SYSTEM TESTED	ASSIGNED CATEGORY
Cc1c2oc3c(C)ccc(C(=O)N[C@@H]4C(=O)N[C@H](C(C)C)C(=O)N5CCC[C@H]5C(=O)N(C)CC(=O)N(C)[C@@H](C(C)C)C(=O)O[C@@H]4C)c3nc-2c(C(=O)N[C@@H]2C(=O)N[C@H](C(C)C)C(=O)N3CCC[C@H]3C(=O)N(C)CC(=O)N(C)[C@@H](C(C)C)C(=O)O[C@@H]2C)c(N)c1=O [Dactinomycin, reference compound] (I: T[dV]P[Sar][NMeV] / II: T[dV]P[Sar][NMeV]; ester I:1-I:C, II:1-II:C; linker I:N-II:N via Actinocin(9to1))	Cryptosporidium parvum	met
CO[C@@]12[C@H](COC(N)=O)C3=C(C(=O)C(C)=C(N)C3=O)N1C[C@@H]1N[C@@H]12 [Mitomycin, reference compound]	Cryptosporidium parvum	met
COC(=O)C[C@H]1C(C)(C)[C@@H](O)[C@@H]2CC3=C4C=C(OC)O[C@@H](c5ccoc5)[C@]4(C)CCC3[C@@]1(C)C2=O (stereo partly shown)	Cryptosporidium parvum	not met
Cc1coc2c1C(=O)C(=O)c1c-2ccc2c1CCCC2(C)C	Cryptosporidium parvum	met
CC1(C)C(=O)C=C[C@]2(C)[C@H]3CC[C@@]4(C)[C@H](c5ccoc5)OC(=O)[C@H]5O[C@]54[C@]3(C)C(=O)C[C@@H]12	Cryptosporidium parvum	not met
COc1ccc2c(c1)OCC(Cc1ccc(OC)c(OC(C)=O)c1)C2=O (stereo not shown)	Cryptosporidium parvum	not met
CC(C)=CCCC1(C)C=Cc2c(O)c3c(c(CC=C(C)C)c2O1)OC12C(=CC4CC1C(C)(C)OC2(C/C=C(/C)C(=O)O)C4O)C3=O (stereo not shown) [Dihydrogambogic acid]	Cryptosporidium parvum	not met
COc1cccc2c1C(=O)c1c(O)c3c(c(O)c1C2=O)C[C@@](O)(C(C)=O)C[C@@H]3O[C@H]1C[C@H](N)[C@H](O)[C@H](C)O1 [Daunorubicin, reference compound]	Cryptosporidium parvum	not met
CC1(C)C(=O)C=C[C@@]2(C)C1=C(O)C(=O)[C@]1(C)[C@@H]2CC[C@@]2(C)[C@H](c3ccoc3)C[C@H]3O[C@]321	Cryptosporidium parvum	met
CC1(C)C(=O)C=C[C@]2(C)[C@H]3CC[C@@]4(C)[C@H](c5ccoc5)OC(=O)[C@H]5O[C@]54[C@]3(C)[C@H](O)C[C@@H]12	Cryptosporidium parvum	not met

====

Hs18S ΔCT overview
system: HCT-8 host cells (Hs18S); settings: primary screening at 10 uM, treated vs control

COMPOUND	Hs18S ΔCT
C[C@H]1O[C@@H](O[C@H]2[C@@H](O)C[C@H](O[C@H]3[C@@H](O)C[C@H](O[C@H]4CC[C@@]5(C)[C@H](CC[C@@H]6[C@@H]5C[C@@H](O)[C@]5(C)[C@@H](C7=CC(=O)OC7)CC[C@]65O)C4)O[C@@H]3C)O[C@@H]2C)C[C@H](O)[C@@H]1O [DIGOXIN]	14.32
O[C@H]1[C@H](O)[C@@H](O)[C@H](O)[C@@H](O)[C@H]1O [INOSITOL]	0.08
COc1cc(/C=C/C(=O)O)cc(OC)c1O [SINAPIC ACID]	0.25
C[C@]12CC[C@H]3C(=CCc4cc(O)ccc43)[C@@H]1CCC2=O [EQUILIN]	-0.60
COc1ccc(-c2oc3ccccc3c(=O)c2OC)cc1 [3,4'-DIMETHOXYFLAVONE]	0.36
CC(=O)N[C@@H](CC(=O)N[C@@H](CCC(=O)O)C(=O)O)C(=O)O [SPAGLUMIC ACID]	0.18
O=c1c(O)c(-c2ccc(O)cc2O)oc2cc(O)cc(O)c12 [MORIN]	-0.21

====

Cytotoxicity (%) overview
test system: HCT-8 host cells (Hs18S); conditions: primary screening at 10 uM, from Hs18S ΔCT
ENDPOINT: Cytotoxicity (%)

COMPOUND	ENDPOINT	NUMERIC RESULT
COC(=O)C1(C)CCCC2(C)c3ccc(O)c(C(C)C)c3CCC12 (stereo not drawn) [TOTAROL-19-CARBOXYLIC ACID, METHYL ESTER]	Cytotoxicity (%)	22.4
O=C(O[C@@H]1Cc2c(O)cc(O)cc2O[C@@H]1c1cc(O)c(O)c(O)c1)c1cc(O)c(O)c(O)c1 [EPIGALLOCATECHIN-3-MONOGALLATE]	Cytotoxicity (%)	-14.2
CC(=O)O[C@@H]1C[C@]2(C)[C@@H](C(C)=O)CC[C@H]2[C@@H]2CCC3=CC(=O)CC[C@]3(C)[C@H]21 [11a-ACETOXYPROGESTERONE]	Cytotoxicity (%)	-16.6

====

tested on: HCT-8 host cells (Hs18S); conditions: 10 µM
ENDPOINT: Cytotoxicity (%)

SUBSTANCE	NUMERIC RESULT
GARLICIN	-30.8
CASANTHRANOL [CASANTHRANOL [cascaroside A shown]]	15.4
SPIRAMYCIN	-12.2
OMEGA-3-ACID ESTERS (EPA shown)	-17.4

====

test system: Cryptosporidium parvum; experiment: qRT-PCR assay of the growth of C. parvum in vitro in HCT-8 host cells (primary and secondary screening, EC50); format: cell-based; conditions: primary screening at 10 uM
Inhibition (%) overview
ENDPOINT: Inhibition (%)

COMPOUND	ENDPOINT	NUMERIC RESULT
CC1(C)C(=O)[C@@H]2O[C@@H]2[C@@]2(C)C1C[C@@H](O)[C@]1(C)C2CC[C@@]2(C)[C@H](c3ccoc3)OC(=O)C3OC321 (stereo partly drawn) [1,2alpha-EPOXYDEACETOXYDIHYDROGEDUNIN]	Inhibition (%)	56.48
CCNC(=O)CC[C@H](N)C(=O)[O-].[K+]	Inhibition (%)	-54.47
CC(=O)O[C@@H]1CC2C(C)(C)C(=O)C3OC3[C@]2(C)C2CC[C@@]3(C)[C@H](c4ccoc4)OC(=O)C4OC43[C@@]21C (some centres unmarked)	Inhibition (%)	29.04
CC(=O)Oc1cc2c(cc1OC(C)=O)[C@@H]1c3ccc(OC(C)=O)c(OC(C)=O)c3OC[C@]1(OC(C)=O)C2 [HAEMATOXYLIN PENTAACETATE]	Inhibition (%)	-26.73
C[C@@H]1CC[C@H]2[C@](C)(CO)[C@@H](O)CC[C@]2(C)[C@@]12CC[C@@](CO)(CCO)O2	Inhibition (%)	9.20
C=CCCCCCCCCCCCC(O)CC(O)COC(C)=O (centres unmarked) [AVOCADENE ACETATE]	Inhibition (%)	-0.39
C[C@]12CCC(=O)C[C@@H]1CC[C@@H]1[C@@H]2CC[C@]2(C)C(=O)CC[C@@H]12	Inhibition (%)	-13.88
COc1cc([C@@H]2c3cc4c(cc3[C@H](OC(C)=O)[C@H]3COC(=O)[C@H]23)OCO4)cc(OC)c1OC [PODOPHYLLIN ACETATE]	Inhibition (%)	72.02

====

test system: HCT-8 host cells (Hs18S); settings: human, 41 h, 10 μM

COMPOUND	Hs18S ΔCT
CC1=C(/C=C/C(C)=C/C=C/C(C)=C/CO)C(C)(C)CCC1 [RETINOL]	0.09
C[C@@H]1CC[C@H]2[C@@H](C)C(=O)O[C@@H]3O[C@@]4(C)CC[C@@H]1[C@]32OO4 [ARTEMISININ]	0.00
O=C(/C=C/c1ccc(O)cc1)c1ccc(O)cc1O [ISOLIQUIRITIGENIN]	-0.34
CC(=O)O[C@@H]1C[C@@]2(C)[C@H](c3ccoc3)C[C@H]3O[C@]32[C@]2(C)C(=O)C(O)=C3C(C)(C)C(=O)C=C[C@]3(C)[C@@H]12 [ANTHOTHECOL]	6.51

====

Hs18S ΔCT overview
system: HCT-8 host cells (Hs18S); conditions: primary screening at 10 uM, treated vs control
Where a name gives a salt, the structure may show the parent alone.
ENDPOINT: Hs18S ΔCT

MOLECULE	RESULT
CC[C@H](CC[C@@H](C)[C@H]1CC[C@H]2[C@@H]3CC[C@H]4C[C@@H](O)CC[C@]4(C)[C@H]3CC[C@]12C)C(C)C [FUCOSTANOL]	-0.69
C=C(C)[C@@H]1CC[C@]2(CO)CC[C@]3(C)[C@H](CC[C@@H]4[C@@]5(C)CC[C@H](O)C(C)(C)[C@@H]5CC[C@]43C)[C@@H]12 [BETULIN]	-0.49
CC(=O)O[C@H]1C[C@H](O[C@H]2[C@@H](O)C[C@H](O[C@H]3[C@@H](O)C[C@H](O[C@H]4CC[C@@]5(C)[C@H](CC[C@@H]6[C@@H]5C[C@@H](O)[C@]5(C)[C@@H](C7=CC(=O)OC7)CC[C@]65O)C4)O[C@@H]3C)O[C@@H]2C)O[C@H](C)[C@H]1O[C@@H]1O[C@H](CO)[C@@H](O)[C@H](O)[C@H]1O [LANATOSIDE C]	8.93
COc1cc(OC)c2c(c1)O[C@H](c1ccc(OC)c(OC)c1)[C@@H](O)C2	-0.47
O=C[C@H](O)[C@H](O)CO [ERYTHROSE]	0.23
NC(=O)CC[C@H](N)C(=O)O [GLUTAMINE (D)]	-0.16
CNCC(=O)c1ccc(O)c(O)c1.Cl [ADRENOLONE HYDROCHLORIDE]	-0.22
C=C(C)[C@H]1Cc2c(ccc3c(=O)c4c(oc23)COc2cc(OC)c(OC)cc2-4)O1 [DEHYDROROTENONE]	-0.07
CC(=O)c1c(O)cc(O)cc1O [PHLORACETOPHENONE]	0.44
COc1ccc(C(=O)O)cc1OC [VERATRIC ACID]	-0.09
CC(C)(C#N)O[C@@H]1O[C@H](CO)[C@@H](O)[C@H](O)[C@H]1O [LINAMARIN]	0.59
COC(=O)[C@H]1[C@H]2C[C@H]3c4[nH]c5ccccc5c4CCN3C[C@@H]2CC[C@@H]1O [CORYNANTHINE]	-0.61
CC1=C(O)C(=O)C=C2C1=CC=C1[C@@]2(C)CC[C@@]2(C)[C@@H]3C[C@](C)(C(=O)O)CC[C@]3(C)CC[C@]12C [CELASTROL]	3.82
C[C@@H]1O[C@@H](O[C@H]2C[C@@H](O)[C@]3(CO)[C@H]4[C@H](O)C[C@]5(C)[C@@H](C6=CC(=O)OC6)CC[C@]5(O)[C@@H]4CC[C@]3(O)C2)[C@H](O)[C@H](O)[C@H]1O [OUABAIN]	11.65
O=c1cc(-c2ccccc2O)oc2cc(O)ccc12 [7,2'-DIHYDROXYFLAVONE]	0.19
NC[C@H]1O[C@H](O[C@H]2[C@H](O[C@@H]3O[C@H](CO)[C@@H](O)[C@H]3O)[C@@H](O)[C@H](N)C[C@@H]2N)[C@H](N)[C@@H](O)[C@@H]1O.O=S(=O)(O)O [RIBOSTAMYCIN SULFATE]	-0.03
O=C(/C=C/C=C/c1ccc2c(c1)OCO2)N1CCCCC1 [PIPERINE]	0.03
C=C[C@@]1(C)CC(=O)[C@@]2(O)[C@](C)(O1)[C@@H](O)[C@@H](O)C1C(C)(C)CC[C@H](O)[C@@]12C (stereo partly drawn) [DESACETYLCOLFORSIN]	0.22
CC(C)CCC[C@@H](C)[C@H]1CC[C@H]2[C@@H]3CC[C@H]4CCCC[C@]4(C)[C@H]3CC[C@]12C [CHOLESTANE]	0.19
COc1ccc(-c2coc3c4c(c(CC=C(C)C)c(O)c3c2=O)OC(C)(C)C=C4)cc1 [OSAJIN 4'-METHYL ETHER]	-0.04
COC1=C[C@@H]2[C@@H]3Cc4ccc(OC)c(O)c4[C@]2(CCN3C)CC1=O [SINOMENINE]	-0.78
O=C(O)CCCC[C@@H]1SC[C@@H]2NC(=O)N[C@@H]21 [BIOTIN]	-0.24
c1cncc([C@@H]2CCCCN2)c1 [ANABASINE HYDROCHLORIDE]	-0.08
CN1[C@@H]2CC[C@H]1C[C@@H](OC(=O)[C@H](CO)c1ccccc1)C2 [HYOSCYAMINE]	-0.12
